- tested.system: FKBP52 (Homo sapiens)
- Construct: Purified FK1-domains of FKBP51WT (4.5 nM) with F4 (3 nM), FKBP52WT (400 nM) with F2 (20 nM); implied by Ni-NTA purification) (N); made in house; host or cells: E. coli BL21(DE3)pLysS
- assay.name: Fluorescence polarization binding assay, FK1-domain of FKBP52WT with tracer F2 (selectivity FKBP51 vs. FKBP52)
- run.parameters: selectivity factor over FKBP52; compounds B01-C25
metric.name: Ki(FKBP51)/Ki(FKBP52)

> print(dat)
                                   molecule          tested.system            metric.name  reported.measurement
1  COc1cc([C@@H](C(=O)N2CCCC[C@H]2C(=O)N[C@H](CO)C(N)=O)C2CCCCC2)cc(OC)c1OC  FKBP52 (Homo sapiens)  Ki(FKBP51)/Ki(FKBP52)           ++ (>50 ++)
2  COc1cc([C@@H](C(=O)N2CCCC[C@H]2C(=O)NC2(C(N)=O)CCC2)C2CCCCC2)cc(OC)c1OC  FKBP52 (Homo sapiens)  Ki(FKBP51)/Ki(FKBP52)           ++ (>50 ++)
3  COc1cc([C@@H](C(=O)N2CCCC[C@H]2C(=O)OC2CCOCC2)C2CCCCC2)cc(OC)c1OC  FKBP52 (Homo sapiens)  Ki(FKBP51)/Ki(FKBP52)        +++ (>500 +++)
4  COc1cc([C@@H](C(=O)N2CCCC[C@H]2C(=O)O[C@H](C)COCc2ccccc2)C2CCCCC2)cc(OC)c1OC  FKBP52 (Homo sapiens)  Ki(FKBP51)/Ki(FKBP52)        +++ (>500 +++)
5  COc1cc([C@@H](C(=O)N2CCCC[C@H]2C(=O)OCCO)C2CCCCC2)cc(OC)c1OC  FKBP52 (Homo sapiens)  Ki(FKBP51)/Ki(FKBP52)        +++ (>500 +++)

Please report the recorded Ki(FKBP51)/Ki(FKBP52) for "COc1cc([C@@H](C(=O)N2CCCC[C@H]2C(=O)N[C@@H](C(N)=O)C(C)C)C2CCCCC2)cc(OC)c1OC" .
+ (>5 +)

Now consider "COc1cc([C@@H](C(=O)N2CCCC[C@H]2C(=O)N[C@@H](Cc2c[nH]cn2)C(N)=O)C2CCCCC2)cc(OC)c1OC" and answer again.
+ (>5 +)

Now consider "COc1cc([C@@H](C(=O)N2CCCC[C@H]2C(=O)N[C@H](C(N)=O)C2CCCCC2)C2CCCCC2)cc(OC)c1OC" and answer again.
++ (>50 ++)

Now consider "COc1cc([C@@H](C(=O)N2CCCC[C@H]2C(=O)OC(C)C)C2CCCCC2)cc(OC)c1OC" and answer again.
+++ (>500 +++)

Now consider "COc1cc([C@@H](C(=O)N2CCCC[C@H]2C(=O)N[C@@H](Cc2ccccc2)C(N)=O)C2CCCCC2)cc(OC)c1OC" and answer again.
++ (>50 ++)

Now consider "CCNC(=O)[C@@H]1CCCCN1C(=O)[C@H](c1cc(OC)c(OC)c(OC)c1)C1CCCCC1" and answer again.
++ (>50 ++)

Now consider "COCCOC(=O)[C@@H]1CCCCN1C(=O)[C@H](c1cc(OC)c(OC)c(OC)c1)C1CCCCC1" and answer again.
++ (>50 ++)

Now consider "CC[C@H](NC(=O)[C@@H]1CCCCN1C(=O)[C@H](c1cc(OC)c(OC)c(OC)c1)C1CCCCC1)C(N)=O" and answer again.
++ (>50 ++)

Now consider "COc1cc([C@@H](C(=O)N2CCCC[C@H]2C(=O)OC2CC=CC2)C2CCCCC2)cc(OC)c1OC" and answer again.
+++ (>500 +++)

Now consider "COc1cc([C@@H](C(=O)N2CCCC[C@H]2C(=O)N[C@H](Cc2ccccc2)C(N)=O)C2CCCCC2)cc(OC)c1OC" and answer again.
++ (>50 ++)

----------
- tested.system: FKBP52 (Homo sapiens, UniProt Q02790)
- Construct: Purified FK1-domains of FKBP51WT (4.5 nM) with F4 (3 nM), FKBP52WT (400 nM) with F2 (20 nM); implied by Ni-NTA purification) (N); made in house; host or cells: E. coli BL21(DE3)pLysS
- Sequence (Q02790 50-138 limits assumed): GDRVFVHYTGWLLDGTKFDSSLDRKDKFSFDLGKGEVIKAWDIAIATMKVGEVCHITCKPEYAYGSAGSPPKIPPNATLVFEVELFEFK
- assay.name: Fluorescence polarization binding assay, FK1-domain of FKBP52WT with tracer F2 (selectivity FKBP51 vs. FKBP52)
- run.parameters: selectivity factor over FKBP52; compounds B01-C25
metric.name: Ki(FKBP51)/Ki(FKBP52)

Solved cases (4 shown):
> print(dat)
                                   molecule            metric.name  reported.measurement
1  COc1cc([C@@H](C(=O)N2CCCC[C@H]2C(=O)N[C@@H](CCC2CCCCC2)C(N)=O)C2CCCCC2)cc(OC)c1OC [Compound B09]  Ki(FKBP51)/Ki(FKBP52)           ++ (>50 ++)
2  CCC(CC)OC(=O)[C@@H]1CCCCN1C(=O)[C@H](c1cc(OC)c(OC)c(OC)c1)C1CCCCC1 [Compound C09]  Ki(FKBP51)/Ki(FKBP52)           ++ (>50 ++)
3  COc1cc([C@@H](C(=O)N2CCCC[C@H]2C(=O)OC(C)CO)C2CCCCC2)cc(OC)c1OC (stereo partly drawn) [Compound C25]  Ki(FKBP51)/Ki(FKBP52)           ++ (>50 ++)
4  COc1cc([C@@H](C(=O)N2CCCC[C@H]2C(=O)OCCOCc2ccccc2)C2CCCCC2)cc(OC)c1OC [Compound C19]  Ki(FKBP51)/Ki(FKBP52)           ++ (>50 ++)

Moving on to another molecule below.
Please report the recorded Ki(FKBP51)/Ki(FKBP52) for COc1cc([C@@H](C(=O)N2CCCC[C@H]2C(=O)NCCC(N)=O)C2CCCCC2)cc(OC)c1OC [Compound B29] .
++ (>50 ++)
